assayTarget: recombinant C-terminally His-tagged human CD47 (extracellular domain) (human) (UniProt Q08722)
Sequence (Q08722 19-141): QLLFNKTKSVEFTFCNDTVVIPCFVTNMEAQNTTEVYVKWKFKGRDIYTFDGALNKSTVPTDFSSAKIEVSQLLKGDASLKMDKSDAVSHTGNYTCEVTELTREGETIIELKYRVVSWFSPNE
assayText: SPR, Biacore X100; construct captured by anti-human Fc on CM5 chip, human CD47 extracellular domain as analyte, 1:1 fit
measureName: Kd (nM)
Numbers only; they are read as nM.

These solved cases illustrate the format of a correct answer.
{"binder": "2D6-046 (bispecific antibody, part only; not given: linkers and anti-TAA IgG1 chains, V domains shown, not shown: another chain or arm of the molecule; large carriers; small tags and cut ends) VH: QVELVQSGPEVKKPGSSVKVSCKASGYTFPSYDINWVRQRPGQGLEWMGWIYPRDGSPKYNEKFKGRVTITADTSTSTAYMELHSLRSEDTAVYYCARSVYYGTQFAYWGQGTLVTVSA VL: DIVLTQSPSSLAVSLGERVTMSCKSSQSLLNSRTRKNYLAWYQQKPGQPPKLLIYWASTRDSGVPDRFSGSGSGTDFTLTISSLQAEDVAVYYCQQSFNLVTFGGGTKLEIK", "measureName": "Kd", "numericResult": 406}
{"binder": "2D6-037 (bispecific antibody, part only; not given: linkers and anti-TAA IgG1 chains, V domains shown, not shown: another chain or arm of the molecule; large carriers; small tags and cut ends) VH: QVELVQSGPEVKKPGSSVKVSCKASGYTFPSYDINWVRQRPGQGLEWMGWIYPRFGSPKYNEKFKGRVTITADTSTSTAYMELHSLRSEDTAVYYCARSVYYGTQFAYWGQGTLVTVSA VL: DIVLTQSPSSLAVSLGERVTMSCKSSQSLLNSRTRKNYLAWYQQKPGQPPKLLIYWASTRDSGVPDRFSGSGSGTDFTLTISSLQAEDVAVYYCKQSFNLVTFGGGTKLEIK", "measureName": "Kd", "numericResult": 176}

Prompt line: Could you tell me which Kd is on file for MSL-745 (bispecific antibody, part only; not given: anti-mesothelin IgG1 chains and linkers, V domains shown, not shown: another chain or arm of the molecule; large carriers; small tags and cut ends) VH: QVELVQSGPEVKKPGSSVKVSCKASGYTFPSYDINWVRQRPGQCLEWMGGIYPRSGSPKYNEKFKGRVTITADTSTSTAYMELHSLRSEDTAVYYCARSVYYGTQFAYWGQGTLVTVSA VL: DIVLTQSPSSLAVSLGERVTMSCKSSQSLLNSRTRKNYLAWYQQKPGQPPKLLIYWASTRDSGVPDRFSGSGSGTDFTLTISSLQAEDVAVYYCQQSFNLVTFGCGTKLEIK ?
Response line: 578

The reported measurements were obtained from patent US20240336681A1.
